These entries and their values trace back to PubChem BioAssay AID709.

- PROCEDURE SUMMARY: intrinsic fluorescence of library compounds, ex339/em460 – biochemical, MLSMR library, data from DPM-DC assay, artefact control, profiling panel (AID 709);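 further: signal is the first read of a kinetic run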
- ASSAY CONDITIONS: compound autofluorescence, ex339/em460 nm, NADH buffer; at 10 µM; active compounds read high; 1 = no-compound wells, NADH background
Hit rate of the full screen: of about 65,000 compounds, about 3,600 (5.5%) were called active. This is one part of a sample in which actives are shown more often than they occur.
fluorescence fold increase values for the compounds below.
Answer with a number only.

Please review the entries below; each comes with its answer.
COMPOUND	fluorescence fold increase
CCOC(=O)N1CCC(NC(=O)CN2C(=O)COc3ccc(C(C)(C)C)cc32)CC1	1.02
Cn1cccc1C1(C(F)(F)F)NCCNC1=O (stereo unspecified)	1.11
CCn1c(=N)c(S(=O)(=O)c2ccc(F)cc2)cc2c(=O)n3ccccc3nc21	3.45
COc1cc(C2C(C#N)=C(N)Oc3n[nH]c(-c4ccccn4)c32)cc(OC)c1OC (stereo unspecified)	1.09
Cc1nc2c(-c3ccccc3)c(C)[nH]n2c(=O)c1Cl	2.16

Could you now consider this next compound?
Documented fluorescence fold increase of "O=c1c(-c2ccc3c(c2)OCCO3)c(C(F)(F)F)oc2cc(O)cc(O)c12" : 1.07

====

- PROCEDURE SUMMARY: intrinsic fluorescence of library compounds, ex339/em460 – biochemical, MLSMR library, data from DPM-DC assay, artefact control, profiling panel (AID 709);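 further: signal is the first read of a kinetic run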
- ASSAY CONDITIONS: compound autofluorescence, ex339/em460 nm, NADH buffer; at 10 µM; 1 = no-compound wells, NADH background
Screen size: about 65,000 compounds; about 3,600 (5.5%) were called active.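 How the source made its calls: active means at 10 µM, mean starting fluorescence two-fold or more over control wells; inactive means the rest.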 The sample as a whole holds a higher share of actives than the screen did.
Your reply should match one of these outcome classes. active, inactive

Below, 2 compounds whose answers are already recorded.
COMPOUND	ASSIGNED LABEL
CCOc1ccccc1N(CC(=O)NC1CCCCC1)C(=O)CCCC(=O)Nc1ccccn1	inactive
CCCCC(=O)Nc1ccc2c(c1)OCCO2	inactive

What call does the record list for COc1ccc(OC)c(CN2C(=O)CCC2(C)C(=O)NC2CCCCCC2)c1 (stereo not drawn) ? inactive

What call does the record list for "COc1cc(OC)c(C(=O)NC2CC(C)(C)NC(C)(C)C2)cc1OC" ? inactive

What call does the record list for "Cc1ccc(S(=O)(=O)NCCN2CCOCC2)cc1C" ? inactive

What call does the record list for O=C(O)C1CCN1C1CCCCC1 (stereo not drawn) ? inactive

What call does the record list for "COc1cc(CO)c(C2(CO)CCCC2)cc1OC" ? inactive

What call does the record list for "CCCc1nc2ccccc2c(C(=O)OCc2nnc(-c3cc(OC)c(OC)c(OC)c3)o2)c1CC" ? inactive

What call does the record list for CC(Cc1cccs1)NC(=O)NC1CCCCC1 (stereo not drawn) ? inactive

What call does the record list for "Cc1nc(N2CCN(c3ncccn3)CC2)c2oc3ccccc3c2n1" ? inactive

What call does the record list for "CCOc1cc(NC(=O)c2ccco2)c(OCC)cc1NC(=O)COc1ccccc1" ? active

====

- PROCEDURE SUMMARY: intrinsic fluorescence of library compounds, ex339/em460 – biochemical, MLSMR library, data from DPM-DC assay, artefact control, profiling panel (AID 709);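 further: signal is the first read of a kinetic run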
- ASSAY CONDITIONS: compound autofluorescence, ex339/em460 nm, NADH buffer; at 10 µM; active compounds read high; 1 = no-compound wells, NADH background
Out of some 65,000 compounds screened, about 3,600 (5.5%) were called active. The entries come from a sample that favours actives as a whole.
fluorescence fold increase values for the molecules below.
Answer with a number only.

Please review the entries below; each comes with its answer.
MOLECULE	fluorescence fold increase
O=C(Nc1cccc(NC(=O)N2CCN(c3ccccc3)CC2)c1)N1CCN(c2ccccc2)CC1	1.06
CSc1nc(C)nc2c1c(=O)n(C)c(=O)n2C	1.11
CCOc1cc2[nH]c(=S)n(CCCN3CCCC3=O)c(=O)c2cc1OCC	1.07

Documented fluorescence fold increase of "O=C(Nc1ccc(S(=O)(=O)N2CCCCC2)cc1)c1cnccn1" : 1.14

Documented fluorescence fold increase of "O=C(NCCc1ccc2c(c1)OCCO2)c1cc2ccccc2o1" : 1.11

Documented fluorescence fold increase of CC1CCc2c(sc(NC(=O)c3ccc(Cn4cc(Br)cn4)o3)c2C(N)=O)C1 (stereo not given) : 3.78

Documented fluorescence fold increase of "Cc1ccccc1NC(=O)NCc1ccco1" : 1.12

Documented fluorescence fold increase of COc1ccc(N2CCN(C(c3cc4ccc(C)cc4[nH]c3=O)c3nnnn3C3CCCC3)CC2)cc1 (stereo not given) : 1.25

Documented fluorescence fold increase of "CCCCCC(=O)Nc1ccc2oc(-c3ccncc3)nc2c1" : 3.72

Documented fluorescence fold increase of NC(=O)CSC1=Nc2ccccc2C2=NC(CCC(=O)NCc3ccc(F)cc3)C(=O)N12 (stereo not given) : 3.51

Documented fluorescence fold increase of "Cn1nc(-c2ccc(Cl)cc2)c2cc(C(=O)NCc3ccco3)sc21" : 2.11

Documented fluorescence fold increase of "CCCCc1cc(=O)oc2cc(C)cc(OCc3nn[nH]n3)c12" : 3.84

Documented fluorescence fold increase of "CCc1c(C)nc(N2CCN(Cc3ccccc3)CC2)[nH]c1=O" : 1.06

Documented fluorescence fold increase of Cc1nc2ccc(NC(=O)N3CCC(c4ccccc4)C3)cc2nc1C (stereo not given) : 2.93
